| smiles str | melting point |
| --- | --- |
| Cc1c(C(=O)N(C)C)s/c(=N\C(=O)c2cccc(C(F)(F)F)c2)n1CC1CC1 | 138 to 140 °C |
| COCCn1c(C)c(C(C)C)s/c1=N\C(=O)c1cccc(C(F)(F)F)c1F | 132 to 134 °C |
| CCOCCn1c(C)c(C(C)C)s/c1=N\C(=O)c1cccc(C(F)(F)F)c1F | 96 to 97 °C |
| CC(C)c1ccccc1C(=O)/N=c1\cc(C(C)(C)C)n(C)n1CC1CC1 | 113 to 114 °C |
| CCOc1ccc(C(=O)/N=c2\sc(C(C)(C)C)c(C)n2CC2CC2)c(OCC)c1 | 116 to 118 °C |

====

Let's look at some compounds and their measured melting point.
parameter: melting point

| compound | parameter | result |
| --- | --- | --- |
| O=C(/N=c1\sccn1CC1CC1)c1cccc(C(F)(F)F)c1F | melting point | 96 to 97 °C |
| CCn1c(C)c(C(C)(C)C)s/c1=N\C(=O)c1cc(I)ccc1F [compound 157] | melting point | 87 to 89 °C |
| Cc1c(C(C)C)s/c(=N\C(=O)c2cccc(C(F)(F)F)c2)n1CC1CC1 | melting point | 89 to 91 °C |
| Cc1c(C(C)(C)C)s/c(=N\C(=O)c2ccc(Cl)cc2)n1CC1CC1 | melting point | 94 to 95 °C |
| Cc1ccn(CC2CC2)/c(=N/C(=O)c2cccc(C(F)(F)F)c2F)c1 [compound 23] | melting point | 81 to 83 °C |
| COc1cc(Cl)ccc1C(=O)/N=c1\sc(C(C)(C)C)c(C)n1C [compound 147] | melting point | 117 to 119 °C |
| Cc1c(C(C)(C)C)s/c(=N\C(=O)c2c(C(F)(F)F)ccc(Cl)c2F)n1CC1CC1 [compound 289] | melting point | 182 to 183 °C |
| Cc1c(Br)cccc1C(=O)/N=c1\cc(C(C)(C)C)n(C)n1CC1CC1 | melting point | 138 to 139 °C |
| Cc1c(C(C)(C)C)s/c(=N\C(=O)c2cccc(Br)c2)n1C | melting point | 173 to 175 °C |
| Cc1ccc(C(=O)/N=c2\sc(C(C)(C)C)c(C)n2CC2CC2)cn1 | melting point | 228 to 230 °C |
| CCn1c(C)c(C(C)(C)C)s/c1=N\C(=O)c1cc(Cl)ccc1OC [compound 167] | melting point | 108 to 109 °C |
| Cc1cc(Cl)ccc1C(=O)/N=c1\sc(C)c(C)n1CC1CC1 [compound 90] | melting point | 124 to 125 °C |
| Cn1c(C(C)(C)C)c/c(=N\C(=O)c2cc(Cl)ccc2Cl)n1CC1CC1 | melting point | 164 to 165 °C |
| O=C(/N=c1\cccc(Cl)n1CC1CC1)c1cccc(C(F)(F)F)c1F [compound 35] | melting point | 81 to 83 °C |
| COC(=O)c1cccc(C(=O)/N=c2\sc(C(C)(C)C)c(C)n2C)c1 | melting point | 192 to 193 °C |
| CCN(CC)c1ccc(C(F)(F)F)cc1C(=O)/N=c1\sc(C(C)(C)C)c(C)n1CC1CC1 | melting point | 131 to 133 °C |
| COc1ccc(F)cc1C(=O)/N=c1\sc(C)c(C)n1CC1CC1 [compound 96] | melting point | 107 to 109 °C |
| COCCn1c(C)c(C(C)(C)C)s/c1=N\C(=O)c1ccc(Cl)cc1F | melting point | 68 to 69 °C |
| Cn1c(C2CC2)c/c(=N\C(=O)c2cccc(C(F)(F)F)c2F)n1-c1ccccc1 | melting point | 168.5 to 169.5 °C |
| Cc1c(C(=O)NC(C)C)s/c(=N\C(=O)c2cccc(C(F)(F)F)c2)n1CC1CC1 | melting point | 212 to 214 °C |
| CCCNc1ccc(C(F)(F)F)cc1C(=O)/N=c1\sc(C(C)(C)C)c(C)n1CC1CC1 | melting point | 131 to 132 °C |
| Cc1c(C(C)(C)C)s/c(=N\C(=O)c2ccc(C(=O)O)cc2)n1CC1CC1 | melting point | 196 to 197 °C |
| Cc1c(C(C)(C)C)s/c(=N\C(=O)c2cccnc2OC2C=CC=CC2)n1CC1CC1 (stereo not drawn) | melting point | 111 to 114 °C |
| O=C(/N=c1\ccccn1CC1CC1)c1cc(Cl)ccc1Cl | melting point | 53.5 to 54.5 °C |
